study conditions: buffer; pH 7.4; 200.0 µM
Let's look at some compounds and their measured solubility kinetic.
The reply should be a number in µg/mL, with the unit left off.

Completed entries (count: 2):
compound: O=C(CN1C(=O)NC2(CCc3ccccc32)C1=O)c1ccccc1 (configuration not stated)
readout number: 40.1
--
compound: COc1ccccc1CNc1nc(C)c(C(C)=O)s1
readout number: 12.1

Now, please, on to the next compound.
Item: `CCOC(=O)C1CCN(C(=O)c2ccc3c(c2)OCCO3)CC1` | solubility kinetic: 44.4

====

study conditions: buffer; pH 7.4; 200.0 µM
Let's look at some compounds and their measured solubility kinetic.

compound: COCC(C)n1c(SCC(=O)NC(=O)NCc2ccccc2)nc2ccccc2c1=O (stereo not drawn)
result: 2.7 µg/mL

Now, please, on to the next compound.
Item: `CCc1cc(=O)[nH]c(SC/C=C/c2ccccc2)n1` | solubility kinetic: 10.7 µg/mL
